Tested on: virus containing Q148R mutation in the integrase gene
Conditions: k = IC50(mutant)/IC50(wild type)
# key: entry, value: Number of fold shift in IC50 versus wild type IIIB, Q148R
property-label: Number of fold shift in IC50 versus wild type IIIB, Q148R

{"compound": "CCN(C(=O)C(=O)N(C)C)[C@H]1CC[C@H](OC)Cn2c1nc(C(=O)NCc1ccc(F)cc1)c(O)c2=O", "result": ">100"}
{"compound": "CC1(C)OCCn2c1nc(C(=O)NCc1ccc(F)cc1)c(O)c2=O [Compound Z, reference compound]", "result": ">34"}
{"compound": "CN(C)C(=O)C(=O)N(C)C1COCCn2c1nc(C(=O)NCc1ccc(F)cc1)c(O)c2=O (single isomer, unassigned; (+)) [Compound V, reference compound]", "result": 13}
{"compound": "Cc1ccc(CNC(=O)c2nc3n(c(=O)c2O)[C@H](C)CCC[C@H]3N(C)C(=O)C(=O)N(C)C)cc1F (racemic)", "result": 1}
{"compound": "CC[C@@H]1COC[C@@H](N(C)C(=O)C(=O)N(C)C)c2nc(C(=O)NCc3ccc(F)cc3)c(O)c(=O)n21", "result": 14}
{"compound": "CN(C)C(=O)C(=O)N(C)C1COCCn2c1nc(C(=O)NCc1ccc(F)cc1)c(O)c2=O (single isomer, unassigned; (-)) [Compound W, reference compound]", "result": 67}
{"compound": "COC1(C)CCC(N(C)C(=O)C(=O)N(C)C)c2nc(C(=O)NCc3ccc(F)c(C)c3)c(O)c(=O)n2C1 (single isomer, unassigned) [Compound 2C]", "result": 22}
